Reference for the values: patent US6511997B1

OBSERVED PROPERTY: melting point

Entry COc1ccc(CC(=O)N(C)c2c(-c3ccncc3)c(-c3ccc(F)cc3)nn2C)cc1 ; melting point = 175.8 to 178.1 °C

Entry Cn1nc(-c2ccc(F)cc2)c(-c2ccncc2)c1NC(=O)C(F)c1ccccc1 (stereo not shown) ; melting point = 92.1 to 96.1 °C

Entry CCCCC(=O)Nc1n[nH]c(-c2ccc(F)cc2)c1-c1ccncc1 ; melting point = 273.7 to 275.8 °C

Entry COc1ccccc1CC(=O)N(C)c1c(-c2ccncc2)c(-c2ccc(F)cc2)nn1C ; melting point = 143.6 to 145.3 °C

###

OBSERVED PROPERTY: melting point

Entry O=C(CCc1ccccc1)Nc1n[nH]c(-c2ccc(F)cc2)c1-c1ccncc1 ; melting point = 253.5 to 255.1 °C

Entry CN(C(=O)Cc1ccccc1Cl)c1c(-c2ccncc2)c(-c2ccc(F)cc2)nn1C ; melting point = 168.6 to 171.2 °C

Entry CCn1nc(-c2ccc(F)cc2)c(-c2ccncc2)c1NC(=O)Cc1ccccn1 ; melting point = 147.5 to 149.5 °C

Entry Cc1cc(C)cc(CC(=O)Nc2c(-c3ccncc3)c(-c3ccc(F)cc3)nn2C)c1 ; melting point = 211.2 to 212.4 °C

Entry Cn1nc(-c2ccc(Cl)c(Cl)c2)c(-c2ccncc2)c1NC(=O)Cc1ccc(F)cc1Cl ; melting point = 279.3 to 280.1 °C

Entry Cn1nc(-c2ccc(F)c(Cl)c2)c(-c2ccncc2)c1NC(=O)Cc1ccccc1 ; melting point = 194.2 to 194.7 °C

Entry O=C(Cc1ccccc1Cl)Nc1n[nH]c(-c2ccc(F)cc2)c1-c1ccncc1 ; melting point = 238.8 to 240.1 °C

Entry Cn1nc(-c2ccc(F)cc2)c(-c2ccncc2)c1NC(=O)Cc1cccc(F)c1 ; melting point = 196.9 to 199.1 °C

Entry Cc1ccccc1CC(=O)Nc1c(-c2ccncc2)c(-c2ccc(F)cc2)nn1C ; melting point = 197.6 to 200.5 °C

Entry CC(C(=O)Nc1c(-c2ccncc2)c(-c2ccc(F)cc2)nn1C)c1ccccc1 (centres unmarked) ; melting point = 210 to 214.9 °C

Entry O=C(Cc1ccccc1)Nc1n[nH]c(-c2ccc(F)cc2)c1-c1ccncc1 ; melting point = 289.2 to 290.4 °C

Entry CC(C)(C)C(=O)Nc1n[nH]c(-c2ccc(F)cc2)c1-c1ccncc1 ; melting point = 217.9 to 220.6 °C

Entry O=C(Cc1cccs1)Nc1n[nH]c(-c2ccc(F)cc2)c1-c1ccncc1 ; melting point = 264.6 to 268.3 °C

Entry COc1cccc(CC(=O)Nc2c(-c3ccncc3)c(-c3ccc(F)cc3)nn2C)c1OC ; melting point = 185.4 to 193.4 °C

Entry CN(C(=O)Cc1ccccc1Cl)c1c(-c2ccncc2)c(-c2ccc(F)cc2)nn1-c1ccccc1 ; melting point = 203.8 to 205.6 °C

Entry O=C(Cc1ccc(F)cc1)Nc1n[nH]c(-c2ccc(F)cc2)c1-c1ccncc1 ; melting point = 259.4 to 261.2 °C

Entry CC(C)C(=O)Nc1n[nH]c(-c2ccc(F)cc2)c1-c1ccncc1 ; melting point = 291.1 to 294 °C
